assay: yeast growth modulation, basal conditions, primary screen, YJM789 clinical isolate, OD600, 24 h (AID 1089);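 also: growth of clinical yeast isolate S. cerevisiae YJM 789 seeded 1000 cells per well; test concentration not given here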; details: S. cerevisiae YJM789 growth, higher = more signal, called active from +8 up or from −8 down
The entries below come with measured z-score values attached.
quantity: z-score

molecule	experimental value
C=CCC(OC(C)=O)[C@@H]1[C@@H](N(Cc2cc3ccccc3o2)C(=O)c2ccc(C)cc2)c2cc(OCCCO)ccc2N1C(=O)c1ccc2ccccc2n1 (stereo not given in full)	-0.0537
Cc1ccc([C@@H]2CC=C(C(=O)O)[C@H](c3ccccc3)N2S(=O)(=O)c2ccc(C)cc2)cc1	-0.0782
C=CCN1C(=O)[C@@]2(Cc3ccccc3)N=C(c3ccc(OCCCO)cc3)O[C@H]2c2ccccc21	-0.772
COc1cccc([C@@H]2[C@@H](C)CC[C@H]3C(=O)N(C)[C@@H](C(C)C)C(=O)N23)c1	-0.0534
COCCOC(=O)N1C(=O)[C@@]2(c3cc(C#CC4=CCCCC4)ccc31)[C@H](C(=O)NC[C@H](O)c1ccccc1)[C@H]1C(=O)O[C@H](c3ccccc3)[C@H](c3ccccc3)N1[C@@H]2c1ccc(OCCO)cc1	2.15
CC1=C([C@H](O)CCc2ccccc2)[C@H](CO)[C@@H]2C(=O)N(Cc3ccccc3)C(=O)[C@@H]2C1	-0.466
CC(C)CNC(=O)[C@@]1(C)c2ccccc2C(=O)N(Cc2ccc(OC(F)(F)F)cc2)[C@H]1c1ccc(CO)cc1	-0.545
[N-]=[N+]=NCc1ccccc1C[C@@]1(C(=O)O)N=C(c2ccc(OCCCO)cc2)O[C@@H]1c1ccccc1N=[N+]=[N-]	-0.41
COc1ccc(C(O)C2C=CC3C(=O)N(C)C(=O)C3N2N2CCCCC2)cc1OCc1ccccc1 (stereo not given)	0.371
COCCOC(=O)N1C(=O)[C@@]2(c3cc(C#CCCO)ccc31)[C@H](C(=O)N1CCCCCCC1)[C@H]1C(=O)O[C@H](c3ccccc3)[C@H](c3ccccc3)N1[C@@H]2c1ccc(O)cc1	-3.75
COc1ccc(CCNC(=O)[C@@]2(c3ccc([N+](=O)[O-])cc3)CC(=O)N(C(C)C)[C@@H]2c2ccc(CO)cc2)cc1	-1.15
CCCC=C(CCC)[C@@H](NS(=O)(=O)c1ccc(C(F)(F)F)cc1)c1ccc(-c2ccccc2)cc1	0.251
C=C(COC)/C(=C/C[C@@H](OC(=O)c1ccncc1)c1ccc(OCCO)cc1)c1cc(C(=O)OC)ccc1OC	-1.08
CO[C@H]1COC(=O)[C@@H](OCc2ccccc2)C=C[C@H](C)[C@@H](OC)COC(=O)[C@H](OCc2ccccc2)C=C[C@@H]1C	-2.92
O=C(O)[C@@H]1Cc2c([nH]c3ccccc23)[C@@H](c2ccccc2)N1	-0.0524
